Parameter cell viability: see the listing below.
# Tested on: HCT116
# method: cell viability (CellTiter-Glo) relative to plate median (fraction of plate median); higher = more viable cells
# condition set: 5 µM; treatment time 24 h; reporter: TCF4/Wnt
Respond numerically, and do not add a unit to the figure.

Example entries and their recorded answers appear below.
| compound | endpoint | observed |
| --- | --- | --- |
| CC1=C(C/C=C(\C)CCC[C@H](C)CCC[C@H](C)CCCC(C)C)C(=O)c2ccccc2C1=O | cell viability | 0.988 |
| COc1ccc2c(c1)OCc1c-2oc2cc(OC)ccc12 | cell viability | 1.01 |
| C=C1C(=O)O[C@@H]2C[C@@]3(C)CCC[C@H](C)C3=C[C@H]12 | cell viability | 0.875 |
| O=C(O)C1=CCCNC1 | cell viability | 1.01 |

// sample CC(=O)Nc1ccc(S(=O)(=O)Nc2ccc([N+](=O)[O-])cc2)cc1 , its cell viability was 0.933

Per the records, this compound ( COc1cc2ccc(=O)oc2c(OC)c1OC ) has cell viability equal to 1.05

Reported cell viability of O=C1NCCN(C(=O)[C@H](Cc2ccccc2)NC(=O)[C@@H]2CCCN2)C1=O : 1.02

So, COc1c2occc2cc2ccc(=O)oc12 ? Its cell viability was 1.02

Sample Cc1cc2c(s1)Nc1ccccc1N=C2N1CCN(C)CC1 ; cell viability observed: 1.14

Summary for this compound, CCOC(=O)CCCCCCCCCCCCC1C=CCC1 (stereo unspecified) : cell viability is 0.949

The compound listed as CCCC(=O)Nc1ncnc2c1ncn2[C@@H]1O[C@@H]2COP(=O)(O)O[C@H]2[C@H]1OC(=O)CCC shows cell viability equal to 0.957

Reported cell viability for O=C(/C=C(\O)c1ccccc1)c1ccccc1O [2',beta-DIHYDROXYCHALCONE] was 1.17

cell viability recorded for this compound, C=C1CC[C@@H]2[C@](C)(CO)[C@H](O)CC[C@@]2(C)[C@@H]1C/C=C1/C(=O)OC[C@H]1O , is 0.963

cell viability reading for CCCc1nc2c(C)cc(-c3nc4ccccc4n3C)cc2n1Cc1ccc(-c2ccccc2C(=O)O)cc1 : 0.992

Please fill in: cell viability reported for CC(=O)[C@H]1CC[C@H]2[C@@H]3CC=C4C[C@@H](O)CC[C@]4(C)[C@H]3CC[C@]12C = 0.941

The compound listed as CC1(C)C=Cc2cc3ccc(=O)oc3cc2O1 has a reported cell viability of 1

* * *

# Test system: SW480
# method: cell viability (CellTiter-Glo) relative to plate median (fraction of plate median); higher = more viable cells
# condition set: 5 µM; treatment time 24 h; reporter: 7TFP
Mark True only for cell viability values smaller than 1; exact matches and larger values are False.

| compound | assigned category |
| --- | --- |
| C1CCN2C[C@@H]3C[C@H](CN4CCCC[C@@H]34)[C@H]2C1 | True |
| CCCC(=O)NCCc1ccccc1 [N-(2-Phenyl)ethylbutyramide] | False |
| Nc1c2c(nc3ccccc13)CCCC2O (stereo not given) | True |
| N[C@@H](C(=O)N[C@@H]1C(=O)N2C(C(=O)O)=C(Cl)CS[C@H]12)c1ccccc1 | True |
| C=C(C)[C@@H]1CC[C@]2(C(=O)O[C@@H]3O[C@H](CO[C@@H]4O[C@H](CO)[C@@H](O[C@@H]5O[C@@H](C)[C@H](O)[C@@H](O)[C@H]5O)[C@H](O)[C@H]4O)[C@@H](O)[C@H](O)[C@H]3O)CC[C@]3(C)[C@H](C[C@@H](O)[C@@H]4[C@@]5(C)[C@@H](CC(=O)O)OC(C)(C)[C@@H]5CC[C@]43C)[C@@H]12 [Isochiisanoside (6)] | True |

For the next question, use this compound.
I'd appreciate it if you could check whether CC(=O)c1oc2cc3[nH]c(=O)cc(C)c3cc2c1C [2-Acetyl-3,5-dimethylfuro[3,2-g]quinolin-7-one (VFT-05)] has cell viability smaller than 1.
True

* * *

# System: DLD1
# method: cell viability (CellTiter-Glo) relative to plate median (fraction of plate median); higher = more viable cells
# condition set: 5 µM; treatment time 24 h; reporter: 7TFP
Listing: cell viability of selected compounds
Reply with the value as a number alone.

Sample records with cell viability:
| compound | cell viability |
| --- | --- |
| CCCOc1ccc(C(=O)OCCN(CC)CC)cc1N | 0.955 |
| Nc1nc(=O)c2[nH]c(=O)cnc2[nH]1 | 1.01 |
| C/C=C(/C(=C/C)c1ccc(O)cc1)c1ccc(O)cc1 | 0.987 |
| CCN(CC)CCOCCOC(=O)C1(c2ccccc2)CCCC1 | 1.03 |
| O=c1c(-c2ccc(O)cc2)coc2cc(O)ccc12 | 1.01 |
| Cc1cc(O)cc(O)c1C(=O)O | 1.03 |

For COc1ccc2cc3[n+](cc2c1OC)CCc1cc2c(cc1-3)OCO2 the compound record lists cell viability as 1.04

// cell viability value for COc1ccccc1OCC(O)COC(N)=O (configuration not stated) : 1.02

Query O=C(O)C1=C(CSc2nnnn2CS(=O)(=O)O)CS[C@@H]2[C@H](NC(=O)[C@H](O)c3ccccc3)C(=O)N12 yields cell viability of 0.951

cell viability for CC(=O)O[C@@H]1C2=C(C)C=C(O2)[C@H]2O[C@]2(C)C[C@H]2C=C(C(=O)O2)[C@H](OC(C)=O)CC1[C@@]1(C)CO1 (some centres not stated) is 1.1

Form: compound = C[C@]1(OC(=O)/C=C/c2ccccc2)C[C@@H](O)[C@]2(O)C=CO[C@@H](O[C@@H]3O[C@H](CO)[C@@H](O)[C@H](O)[C@H]3O)[C@@H]21 ; cell viability = 1.03

Summary for this compound, COc1ccc(-c2oc3ccccc3c(=O)c2O)cc1OC : cell viability is 0.969

* * *

# System: DLD1
# method: TCF/Wnt firefly luciferase reporter signal relative to plate median (fraction of plate median); higher = higher Wnt reporter signal
# condition set: 5 µM; treatment time 24 h; reporter: 7TFP
endpoint: TCF/Wnt firefly luciferase reporter signal
I only need the number, thanks.

| compound | measured target | observed |
| --- | --- | --- |
| CCC(O)CC1CCC(C(C)C(=O)OC(C)CC2CCC(C(C)C(=O)O)O2)O1 (stereo not drawn) | DLD1 | 0.962 |
| CC(=O)OCC(=O)[C@@]1(O)CC[C@H]2[C@@H]3CCC4=CC(=O)CC[C@]4(C)[C@H]3C(=O)C[C@@]21C | DLD1 | 1.05 |
| O=c1cc(CO)occ1O | DLD1 | 0.952 |

Next item in the queue.
The reported TCF/Wnt firefly luciferase reporter signal of the compound c1ccc2c(CC3=NCCN3)cccc2c1 was 1.07

* * *

# Test system: SW480
# method: cell viability (CellTiter-Glo) relative to plate median (fraction of plate median); higher = more viable cells
# condition set: 5 µM; treatment time 24 h; reporter: 7TFP
endpoint: cell viability
Lab note: record just the number, no unit beside it.

Take a look at these entries with their results.
| compound | endpoint | observed |
| --- | --- | --- |
| O=C(O)/C=C/C=C/c1ccccc1 | cell viability | 0.98 |
| CCN(CC)CCNC(=O)c1cc(S(C)(=O)=O)ccc1OC | cell viability | 1 |
| Cc1c(C)c2c(c(C)c1O)CCC(C)(CCCC(C)CCCC(C)CCCC(C)C)O2 (stereo not drawn) [alpha-TOCHOPHEROL] | cell viability | 1.01 |
| NC(CO)C(=O)NNCc1ccc(O)c(O)c1O (stereo unspecified) | cell viability | 1.02 |
| CC(=O)NCC(=O)c1c[nH]c2ccccc12 [N-Acetyl-beta-oxotryptamin] | cell viability | 0.982 |

cell viability reported for this compound C[C@H](CCC(=O)O)[C@H]1CC[C@H]2[C@@H]3CC[C@@H]4C[C@H](O)CC[C@]4(C)[C@H]3C[C@H](O)[C@]12C : 1

For this compound ( COc1ccc(C(=O)CC(=O)c2ccc(C(C)(C)C)cc2)cc1 ), measured cell viability is 1.01

Please fill in: cell viability reported for COc1cc2c(cc1OC)-c1c(oc3cc(O)cc(O)c3c1=O)CO2 = 0.972

Memo: CC1(C)[C@@H](O[C@H]2O[C@H](C(=O)O)[C@@H](O)[C@H](O)[C@H]2O[C@@H]2O[C@H](C(=O)O)[C@@H](O)[C@H](O)[C@H]2O)CC[C@]2(C)[C@H]3C(=O)C=C4[C@@H]5C[C@@](C)(C(=O)O)CC[C@]5(C)CC[C@@]4(C)[C@]3(C)CC[C@@H]12 , reported cell viability: 1.02

In plain terms, CCC(O)CC1CCC(C(C)C(=O)OC(C)CC2CCC(C(C)C(=O)O)O2)O1 (stereo unspecified) [Bonactin] has a documented cell viability of 0.974

For COC(=O)C[C@H]1C(C)(C)[C@@H](OC(C)=O)[C@@H]2CC3C4CC(=O)O[C@@H](c5ccoc5)[C@]4(C)CCC3[C@@]1(C)C2=O (stereo partly specified) the compound record lists cell viability as 1.01
